- ASSAY TARGET: rat APJ receptor (Rattus norvegicus, UniProt Q9JHG3)
- Construct: expressed in transfected cells
- Sequence (Q9JHG3 whole entry): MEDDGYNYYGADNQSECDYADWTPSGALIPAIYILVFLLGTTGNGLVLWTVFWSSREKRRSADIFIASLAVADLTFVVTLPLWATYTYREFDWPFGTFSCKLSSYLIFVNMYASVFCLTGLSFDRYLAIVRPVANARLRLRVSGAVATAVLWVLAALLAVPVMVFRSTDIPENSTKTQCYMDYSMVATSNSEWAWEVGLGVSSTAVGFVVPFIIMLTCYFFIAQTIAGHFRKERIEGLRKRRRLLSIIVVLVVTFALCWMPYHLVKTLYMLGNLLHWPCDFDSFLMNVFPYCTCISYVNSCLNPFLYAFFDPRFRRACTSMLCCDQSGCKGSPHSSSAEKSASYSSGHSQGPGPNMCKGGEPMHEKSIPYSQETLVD
- MEASUREMENT NOTES: [35S] GTPγS assay, rat APJ receptor
- Type: biochemical
- MEASUREMENT PARAMETERS: rat APJ receptor, read-out: EC50 Rat APJ Receptor
Non-standard residues stand in square brackets, D forms with d. Residues, ends and D or L forms follow the SMILES beside them. Oic = O=C(O)[C@@H]1C[C@@H]2CCCC[C@@H]2N1; Phe(4-Cl) = N[C@@H](Cc1ccc(Cl)cc1)C(=O)O; NMeR = CN[C@@H](CCCNC(=N)N)C(=O)O; hArg = N=C(N)NCCCC[C@H](N)C(=O)O; Cha = N[C@@H](CC1CCCCC1)C(=O)O; NMeL = CN[C@@H](CC(C)C)C(=O)O; Nle = CCCC[C@H](N)C(=O)O

[
  {
    "MOLECULE": "CCCC[C@H](NC(=O)[C@@H]1CCCN1C(=O)CNC(=O)[C@H](CCCCN)NC(=O)[C@H](Cc1c[nH]cn1)NC(=O)[C@H](CO)NC(=O)[C@H](CC(C)C)N(C)C(=O)[C@H](CCCNC(=N)N)N(C)C(=O)[C@@H]1CCCN1C(=O)[C@H](CCCNC(=N)N)NC(=O)[C@H](CCC(N)=O)NC(=O)[C@H](CCCNC(=N)N)NC(C)=O)C(=O)N1CCC[C@H]1C(=O)N[C@@H](Cc1ccc(Cl)cc1)C(=O)O [compound 67] (Ac-RQRP[NMeR][NMeL]SHKGP[Nle]P[Phe(4-Cl)]-OH)",
    "UNITS": "nM",
    "EC50": 1.4
  },
  {
    "MOLECULE": "CCCCCC(=O)N[C@@H](CCC(=O)NCCOCCOCC(=O)NCCOCCOCC(=O)N[C@@H](CCC(N)=O)C(=O)N(C)[C@@H](CCCCNC(=N)N)C(=O)N1CCC[C@H]1C(=O)N(C)[C@@H](CCCNC(=N)N)C(=O)N[C@@](C)(CC(C)C)C(=O)N[C@@H](CO)C(=O)N[C@@H](Cc1c[nH]cn1)C(=O)N[C@@H](CCCCN)C(=O)NCC(=O)N1CCC[C@H]1C(=O)N[C@@H](CCCC)C(=O)N1CCC[C@H]1C(=O)N[C@@H](Cc1ccc(Cl)cc1)C(=O)O)C(=O)O",
    "UNITS": "nM",
    "EC50": 5.94
  },
  {
    "MOLECULE": "CSCC[C@H](NC(=O)[C@@H]1CCCN1C(=O)CNC(=O)[C@H](CCCCN)NC(=O)[C@H](Cc1c[nH]cn1)NC(=O)[C@H](CO)NC(=O)[C@H](CC(C)C)NC(=O)[C@H](CCCNC(=N)N)NC(=O)[C@@H]1CCCN1C(=O)[C@H](CCCNC(=N)N)NC(=O)[C@H](CCC(N)=O)NC(=O)[C@H](CCCNC(=N)N)NC(=O)[C@H](CCCNC(=N)N)NC(=O)[C@H](Cc1ccccc1)NC(=O)[C@@H](N)CCCCN)C(=O)N1CCC[C@H]1C(=O)O",
    "UNITS": "nM",
    "EC50": 5.81
  },
  {
    "MOLECULE": "CCCC[C@H](NC(=O)[C@@H]1C[C@@H]2CCCC[C@@H]2N1C(=O)CNC(=O)[C@H](CCCCN)NC(=O)[C@H](Cc1c[nH]cn1)NC(=O)[C@H](CO)NC(=O)[C@H](CC1CCCCC1)NC(=O)[C@H](CCCNC(=N)N)N(C)C(=O)[C@@H]1CCCN1C(=O)[C@H](CCCCNC(=N)N)NC(=O)[C@H](CCC(N)=O)NC(C)=O)C(=O)N1CCC[C@H]1C(=O)N[C@@H](Cc1ccc(Cl)cc1)C(=O)O [compound 61] (Ac-Q[hArg]P[NMeR][Cha]SHKG[Oic][Nle]P[Phe(4-Cl)]-OH)",
    "UNITS": "nM",
    "EC50": 0.189
  }
]

* * *

- MEASUREMENT NOTES: In vitro stability in rat kidney homogenate
- Type: in vitro ADME
- MEASUREMENT PARAMETERS: rat, tissue homogenate
Starred links: 1 amine or outer side, 2 acyl side, 3 side chain; linkers in the order of their positions; H or OH if unused. Non-standard residues stand in square brackets, D forms with d. Residues, ends and D or L forms follow the SMILES beside them. *: point of attachment. Oic = O=C(O)[C@@H]1C[C@@H]2CCCC[C@@H]2N1; Phe(4-Cl) = N[C@@H](Cc1ccc(Cl)cc1)C(=O)O; γGlu = O=C(O)[C@H](CCC(=O)[*:2])N[*:1]; NMeR = CN[C@@H](CCCNC(=N)N)C(=O)O; Tridecanoyl = CCCCCCCCCCCCC(=O)*; αMeL = CC(C)C[C@](C)(N)C(=O)O; Nle = CCCC[C@H](N)C(=O)O; AEEA = NCCOCCOCC(=O)O
MEASUREMENT LABEL: remaining at 4 h, 5 μM (%)

[
  {
    "MOLECULE": "CCCCCCCCCCCCC(=O)N[C@@H](CCC(=O)NCCOCCOCC(=O)NCCOCCOCC(=O)N[C@@H](CCC(N)=O)C(=O)N(C)[C@@H](CCCNC(=N)N)C(=O)N[C@@](C)(CC(C)C)C(=O)N[C@@H](CO)C(=O)N[C@@H](Cc1c[nH]cn1)C(=O)N[C@@H](CCCCN)C(=O)NCC(=O)N1[C@H](C(=O)N[C@@H](CCCC)C(=O)N2CCC[C@H]2C(=O)N[C@@H](Cc2ccc(Cl)cc2)C(=O)O)C[C@@H]2CCCC[C@@H]21)C(=O)O [compound 397] ({Tridecanoyl-γGlu-AEEA-AEEA}-Q[NMeR][αMeL]SHKG[Oic][Nle]P[Phe(4-Cl)]-OH)",
    "MEASUREMENT LABEL": "remaining at 4 h, 5 μM",
    "CMP": "=",
    "EXPERIMENTAL VALUE": 1
  },
  {
    "MOLECULE": "CCCCCCCCCCCCC(=O)N[C@@H](CCC(=O)NCCOCCOCC(=O)NCCOCCOCC(=O)N[C@H](CCC(N)=O)C(=O)N[C@@H](CCCNC(=N)N)C(=O)N1CCCC1(C)C(=O)N[C@@H](CCCCNC(=N)N)C(=O)NC(CC(=O)N[C@@H](CO)C(=O)N[C@@H](Cc1c[nH]cn1)C(=O)N[C@@H](CCCCN)C(=O)NCC(=O)N1CCCC1(C)C(=O)N[C@@H](CCCC)C(=O)N1CCCC1(C)C(=O)N[C@@H](Cc1ccc(Cl)cc1)C(=O)O)C(C)C)C(=O)O (some centres unmarked)",
    "MEASUREMENT LABEL": "remaining at 4 h, 5 μM",
    "CMP": "=",
    "EXPERIMENTAL VALUE": 4
  },
  {
    "MOLECULE": "CCCC[C@H](NC(=O)[C@@H]1CCCN1C(=O)CNC(=O)[C@H](CCCCN)NC(=O)[C@H](Cc1c[nH]cn1)NC(=O)[C@H](CO)NC(=O)[C@](C)(CC(C)C)NC(=O)[C@H](CCCNC(=N)N)N(C)C(=O)[C@@H]1CCCN1C(=O)[C@H](CCCCNC(=N)N)NC(=O)[C@H](CCC(N)=O)NC(C)=O)C(=O)N1CCC[C@H]1C(=O)N[C@@H](Cc1ccc(Cl)cc1)C(=O)O",
    "MEASUREMENT LABEL": "remaining at 4 h, 5 μM",
    "CMP": "=",
    "EXPERIMENTAL VALUE": 0.1
  },
  {
    "MOLECULE": "CCCC[C@H](NC(=O)[C@@H]1CCCN1C(=O)CNC(=O)[C@H](CCCCN)NC(=O)[C@H](Cc1c[nH]cn1)NC(=O)[C@H](CO)NC(=O)[C@](C)(CC(C)C)NC(=O)[C@H](CCCCNC(=N)N)NC(=O)[C@]1(C)CCCN1C(=O)[C@H](CCCNC(=N)N)NC(=O)[C@H](CCC(N)=O)NC(C)=O)C(=O)N1CCC[C@H]1C(=O)N[C@@H](Cc1ccc(Cl)cc1)C(=O)O",
    "MEASUREMENT LABEL": "remaining at 4 h, 5 μM",
    "CMP": "<",
    "EXPERIMENTAL VALUE": 1
  },
  {
    "MOLECULE": "CCCCCCCCCCCCC(=O)N[C@@H](CCC(=O)NCCOCCOCC(=O)NCCOCCOCC(=O)N[C@@H](CCC(N)=O)C(=O)N[C@@H](CCCNC(=N)N)C(=O)N1CCC[C@H]1C(=O)N(C)[C@@H](CCCNC(=N)N)C(=O)N[C@@H](CC(C)C)C(=O)N[C@@H](CO)C(=O)N[C@@H](Cc1c[nH]cn1)C(=O)N[C@@H](CCCCN)C(=O)NCC(=O)N1CCC[C@H]1C(=O)N[C@@H](CCCC)C(=O)N1CCC[C@@]1(C)C(=O)N[C@@H](Cc1ccc(Cl)cc1)C(=O)O)C(=O)O",
    "MEASUREMENT LABEL": "remaining at 4 h, 5 μM",
    "CMP": "=",
    "EXPERIMENTAL VALUE": 3
  }
]

Reference for the values: patent US11807693B2
